Each recorded value in this set is attributed to patent US10047105B2.

# Tested on: S. aureus ATCC 13709
# test_name: MIC, antibacterial potency, S. aureus
# Type: cell-based
# condition_parameters: S. aureus (SA); in µg/mL
recorded_endpoint: MIC, SA

{"molecule": "CCc1[nH]c2nc(Oc3cncnc3)nc(N3CC(N)C3)c2c1Br [700,877]", "tested_target": "S. aureus ATCC 13709", "relation": "=", "reading": 4}
{"molecule": "CCc1[nH]c2nc(Oc3cncnc3)nc(N3CC(Cc4cncnc4)C3)c2c1Cl [700,909]", "tested_target": "S. aureus ATCC 13709", "relation": "=", "reading": 1}
{"molecule": "CCc1[nH]c2nc(Sc3cnc4ccc[n+]([O-])c4c3)nc(N3CC4(CNC4)C3)c2c1Cl [701,038]", "tested_target": "S. aureus ATCC 13709", "relation": "=", "reading": 8}
{"molecule": "CCc1[nH]c2nc(Sc3cnc4c(c3)ncc(=O)n4C3CCNCC3)nc(N3CC[C@@H](N)C3)c2c1Cl [700,799]", "tested_target": "S. aureus ATCC 13709", "relation": ">", "reading": 64}
{"molecule": "CCc1[nH]c2nc(Sc3cnc4cccnc4c3)nc(N3C[C@H](N)[C@H](C(=O)N4CC(N)C4)C3)c2c1Cl [701,016]", "tested_target": "S. aureus ATCC 13709", "relation": ">", "reading": 64}
{"molecule": "CCc1[nH]c2nc(Sc3cnc4nccnc4c3)nc(N3CCC4(CCNCC4)C3)c2c1Cl [700,900]", "tested_target": "S. aureus ATCC 13709", "relation": "=", "reading": 8}
{"molecule": "CCc1[nH]c2nc(Oc3cncnc3)nc(N3CC4C(C3)C4NC(C)=O)c2c1Br (centres unmarked) [701,052]", "tested_target": "S. aureus ATCC 13709", "relation": "=", "reading": 4}

====

# Test system: S. aureus ATCC 13709
# test_name: MIC, antibacterial potency, S. aureus
# Format: cell-based
# condition_parameters: S. aureus (SA); in µg/mL
recorded_endpoint: MIC, SA

{"compound": "CCc1[nH]c2nc(Sc3cnc4[nH][nH]c(=O)c4c3)nc(N3CC[C@@H](N)C3)c2c1Cl [701,094]", "relation": ">", "reading": 64}
{"compound": "CCc1[nH]c2nc(Sc3cnc4cccnc4c3)nc(N3C[C@H](N)[C@H](C(=O)N[C@@H](CO)c4ccccc4)C3)c2c1Cl [701,021]", "relation": "=", "reading": 4}
{"compound": "CCc1[nH]c2nc(Oc3cccc(C#N)c3)nc(C(C)N)c2c1Cl (stereo not drawn) [700,946]", "relation": ">", "reading": 64}
{"compound": "CCc1[nH]c2nc(Oc3cncc(C(N)=O)c3)ncc2c1Cl [701,265]", "relation": "=", "reading": 4}
{"compound": "CCc1[nH]c2nc(Sc3cnc(N)nc3)nc(N3CC4CNC4C3)c2c1Cl (stereo not drawn) [700,790]", "relation": "=", "reading": 16}
{"compound": "CCc1[nH]c2nc(Sc3cnc4nccnc4c3)nc(N3CCC(CN)CC3)c2c1Cl [700,829]", "relation": "=", "reading": 16}
{"compound": "CCc1[nH]c2nc(Sc3cnc4cccnc4c3)nc(N3CCC(N)(C(=O)N[C@H]4CCOC4=O)C3)c2c1Cl (stereo partly drawn) [700,888]", "relation": ">", "reading": 64}
{"compound": "CCc1[nH]c2nc(Sc3cc(F)cc4nc(C)nc(N)c34)nc(N3CC[C@@H](N)C3)c2c1Cl [700,864]", "relation": "=", "reading": 4}
{"compound": "NC1C2CN(c3nc(Sc4cnc5nccnc5c4)nc4[nH]c(C5CC5)c(Cl)c34)CC12 (stereo not drawn) [700,976]", "relation": "=", "reading": 4}
{"compound": "CCc1[nH]c2nc(Sc3cnc4cccnc4c3)nc(N3C[C@H](C4CCCCC4)[C@@H](N)C3)c2c1Cl [700,890]", "relation": "=", "reading": 2}
{"compound": "CCc1[nH]c2nc(Oc3ccc4nccnc4c3)nc(N3CC(CN(C)C)C3)c2c1Br [701,114]", "relation": "=", "reading": 8}
{"compound": "CCc1[nH]c2nc(Sc3ccc4c(N5CC(CN)C5)nc(C)nc4c3)nc(N3CC[C@@H](N)C3)c2c1Cl [700,922]", "relation": "=", "reading": 32}
{"compound": "CCc1[nH]c2nc(Sc3cncc(C#N)c3)nc(N3CC[C@@H](N)C3)c2c1Cl [700,824]", "relation": "=", "reading": 2}
{"compound": "CCc1[nH]c2nc(Sc3cnc4cccnc4c3)nc(N3CC(N)C4(CC4)C3)c2c1Cl (stereo not drawn) [700,869]", "relation": "=", "reading": 2}
{"compound": "CCc1[nH]c2nc(Oc3cncnc3)nc(N3CC(N)C3)c2c1Cl [700,907]", "relation": "=", "reading": 8}
{"compound": "CCc1[nH]c2nc(Sc3cnc4cccnc4c3)nc(N3C[C@@H]4NCCO[C@H]4C3)c2c1Cl [700,958]", "relation": "=", "reading": 2}
{"compound": "CCc1[nH]c2nc(Sc3ccc4ccc(C(=O)O)nc4c3)nc(N3CC(CNC(=O)C4CC4)C3)c2c1Cl [700,804]", "relation": "=", "reading": 4}
{"compound": "CCc1[nH]c2nc(Sc3cnc4cccnc4c3)nc(N3CC4C(C3)C4(CN)NCc3ccccc3)c2c1Cl (stereo not drawn) [700,887]", "relation": "=", "reading": 8}
{"compound": "CCc1[nH]c2nc(Oc3ccc4nccnc4c3)nc(N3CC[C@@H](NC(C)=O)C3)c2c1Cl [701,001]", "relation": "=", "reading": 4}
{"compound": "CCc1[nH]c2nc(Oc3ccc4ccc[n+]([O-])c4c3)nc(Oc3ccc4ccc[n+]([O-])c4c3)c2c1Br [701,056]", "relation": "=", "reading": 4}
{"compound": "CCc1[nH]c2nc(Oc3cncc(OC)c3)nc(N3CC4C(N)C4C3)c2c1Cl (stereo not drawn) [701,041]", "relation": "=", "reading": 8}
{"compound": "CCc1[nH]c2nc(Sc3cnc4cccnc4c3)nc(N3C[C@@H]4NCCO[C@@H]4C3)c2c1Cl [700,959]", "relation": "=", "reading": 2}
{"compound": "CCc1[nH]c2nc(Oc3cccc(C#N)c3)nc(C(C)=O)c2c1Cl [700,893]", "relation": "=", "reading": 4}
{"compound": "NC1CN(c2nc(Sc3cnc4cccnc4c3)nc3[nH]c(C4CC4)c(Cl)c23)C1 [701,065]", "relation": "=", "reading": 8}
{"compound": "CCc1[nH]c2nc(Sc3cnc4cccnc4c3)nc(N3C[C@H](N)C[C@@H]3CO)c2c1Cl [700,870]", "relation": "=", "reading": 64}
{"compound": "CCc1[nH]c2nc(Sc3cnc4nccnc4c3)nc(N3CC4C(C3)C4(CN)NCc3ccccc3)c2c1Cl (stereo not drawn) [700,886]", "relation": ">", "reading": 8}
{"compound": "CCc1[nH]c2nc(Oc3cncc(C#N)c3)nc(N3CC4C(C3)C4(N)C(N)=O)c2c1Cl (stereo not drawn) [700,981]", "relation": "=", "reading": 16}

====

# Tested on: S. aureus ATCC 13709
# test_name: MIC, antibacterial potency, S. aureus
# Type: cell-based
# condition_parameters: S. aureus (SA); in µg/mL

{"compound": "CCc1[nH]c2nc(Sc3cnc4ccc[n+]([O-])c4c3)nc(N3CC4CCNC4C3)c2c1Cl (stereo not drawn)", "MIC, SA": "<=0.5"}
{"compound": "CCc1[nH]c2nc(Sc3cnc4nccnc4c3)nc(N3CCC(n4c(=O)[nH]c5cc(Cl)ccc54)CC3)c2c1Cl.O=C(O)C(F)(F)F", "MIC, SA": ">64"}
{"compound": "CCc1[nH]c2nc(Sc3ccc4cc5c([n+]([O-])c4c3)CCOC5)nc(N3CC[C@@H](N)C3)c2c1Cl", "MIC, SA": "<=0.5"}
{"compound": "CCc1[nH]c2nc(Oc3cncnc3)nc(Oc3ccc4ncnc(N5CC(N)C5)c4c3)c2c1Cl", "MIC, SA": 8}
{"compound": "CCc1[nH]c2nc(Sc3cnc4cccnc4c3)nc(N3CCC(N)(C(=O)N[C@H](CO)C(=O)O)C3)c2c1Cl (stereo partly drawn)", "MIC, SA": ">64"}
{"compound": "CCc1[nH]c2nc(Sc3ccc4oc(C)nc4c3)nc(N3CC[C@@H](N)C3)c2c1Cl", "MIC, SA": 8}
{"compound": "CCc1[nH]c2nc(Sc3ccc4[nH]cc(C(=O)O)c(=O)c4c3)nc(N3CC[C@@H](N)C3)c2c1Cl", "MIC, SA": ">64"}
{"compound": "CCc1[nH]c2nc(Sc3cnc4cccnc4c3)nc(N3CCC(CNC(=O)c4nccs4)C3)c2c1Cl (stereo not drawn)", "MIC, SA": "<=0.5"}
{"compound": "CCc1[nH]c2nc(Oc3cncc(C(N)=O)c3)nc(N3CC4C(N)C4C3)c2c1Cl (stereo not drawn)", "MIC, SA": ">64"}
{"compound": "CCc1[nH]c2nc(Sc3cnc4cccnc4c3)nc(N3C[C@@H]4[C@@H](N)[C@@H]4C3)c2c1Cl", "MIC, SA": "<=0.5"}
{"compound": "CCc1[nH]c2nc(Sc3ccc4ccc(C(=O)O)nc4c3)nc(N3CC(NC(=O)C4CC4)C3)c2c1Cl", "MIC, SA": 2}
{"compound": "CCc1[nH]c2nc(Sc3ccc4cc5c(nc4c3)CCOC5)nc(N3CC[C@@H](N)C3)c2c1Cl", "MIC, SA": "<=0.5"}
{"compound": "CCc1[nH]c2nc(Sc3ccc4ccc[n+]([O-])c4c3)nc(N3CC[C@@H](N)C3)c2c1Cl", "MIC, SA": "<=0.5"}
{"compound": "CCc1[nH]c2nc(Sc3ccc4nnc(C(=O)NCCN5CCCC5)nc4c3)nc(N3CC[C@@H](N)C3)c2c1Cl", "MIC, SA": 64}
{"compound": "CCc1[nH]c2nc(Oc3cnc(OC)c(OC)c3)nc(Oc3cnc(OC)c(OC)c3)c2c1Br", "MIC, SA": "<=0.5"}
